Assay: Solubility by capillary NMR with solvent 13C-satellites (QSCS)
Type: physicochemical
Settings: 23 °C, aqueous with cosolvent or surfactant or cyclodextrin
reported metric: solubility (mM)
Respond with the bare value in mM.

Please look up its solubility: CC[C@H](OC)[C@@H](C)[C@H]1O[C@@H]1[C@H](O)[C@@H](C)/C=C/C=C(\C)[C@H]1O[C@H](OC)[C@H](OC)[C@@H](OC)[C@@H]1OC 95
